Ref: patent US20240360228A1

Quick reference: % Blocking of the listed items.
tgt: T1, human chemokine (C-C motif) receptor 8 (CCR8) (human, UniProt P51685 1-355)
T1 construct: On human peripheral blood lymphocytes / PBMC (native) or on human CCR8 GFP-transfected Ba/F3 cells; also called hCCR8; human CCR8
procedureDetails: flow cytometry blocking, PBMC CCR8+ CD4+ cells; competitor PE-AB11 (its MFI is read)
Supply the numeric figure in %, leaving out any unit text.

>  <binder>
AB11 (antibody, V domains shown, Hybridoma monoclonal; also called antibody 11; clone 11) VH: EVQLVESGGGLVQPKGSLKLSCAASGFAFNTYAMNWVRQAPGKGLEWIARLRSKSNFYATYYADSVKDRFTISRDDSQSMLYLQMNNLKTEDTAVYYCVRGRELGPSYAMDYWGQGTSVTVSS VL: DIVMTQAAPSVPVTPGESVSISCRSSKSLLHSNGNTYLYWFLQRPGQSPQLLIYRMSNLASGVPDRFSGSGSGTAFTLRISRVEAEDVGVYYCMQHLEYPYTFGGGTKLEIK

>  <% Blocking, %>
25.3

$$$$

Given the binder AB5 (antibody, V domains shown, Hybridoma monoclonal; also called antibody 5; clone 5) VH: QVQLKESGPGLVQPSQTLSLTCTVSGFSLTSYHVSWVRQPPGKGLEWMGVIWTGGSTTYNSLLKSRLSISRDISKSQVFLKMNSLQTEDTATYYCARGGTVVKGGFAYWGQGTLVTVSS VL: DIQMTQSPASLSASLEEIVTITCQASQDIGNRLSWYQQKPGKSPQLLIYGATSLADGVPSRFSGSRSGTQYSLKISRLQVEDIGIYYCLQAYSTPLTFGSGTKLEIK , what is its reported % Blocking?
-11.2

Given the binder AB12 (antibody, V domains shown, Hybridoma monoclonal; also called antibody 12; clone 12) VH: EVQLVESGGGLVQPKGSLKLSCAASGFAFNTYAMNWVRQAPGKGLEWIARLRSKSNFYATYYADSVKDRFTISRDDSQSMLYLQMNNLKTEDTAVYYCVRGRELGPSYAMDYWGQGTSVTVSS VL: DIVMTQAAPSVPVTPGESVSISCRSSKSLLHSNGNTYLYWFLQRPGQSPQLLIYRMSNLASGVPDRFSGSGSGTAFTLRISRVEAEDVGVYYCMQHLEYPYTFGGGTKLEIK , what is its reported % Blocking?
23.6

Given the binder AB10 (antibody, V domains shown, Hybridoma monoclonal; also called antibody 10; clone 10) VH: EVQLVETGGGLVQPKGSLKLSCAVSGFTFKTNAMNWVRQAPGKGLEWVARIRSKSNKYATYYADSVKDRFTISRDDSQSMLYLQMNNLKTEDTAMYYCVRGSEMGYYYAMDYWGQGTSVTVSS VL: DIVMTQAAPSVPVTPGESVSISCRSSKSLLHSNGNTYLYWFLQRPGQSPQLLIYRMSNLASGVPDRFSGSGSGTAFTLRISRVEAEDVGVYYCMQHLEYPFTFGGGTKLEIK , what is its reported % Blocking?
39.5

Given the binder AB3 (antibody, V domains shown, Hybridoma monoclonal; also called antibody 3; clone 3) VH: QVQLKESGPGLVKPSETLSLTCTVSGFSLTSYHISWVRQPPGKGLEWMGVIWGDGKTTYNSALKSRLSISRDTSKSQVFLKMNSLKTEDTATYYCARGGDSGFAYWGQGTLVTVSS VL: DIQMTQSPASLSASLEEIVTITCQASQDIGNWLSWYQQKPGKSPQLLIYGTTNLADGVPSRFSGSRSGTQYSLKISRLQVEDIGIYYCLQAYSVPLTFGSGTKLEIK , what is its reported % Blocking?
-4.37
